target: human renin (Homo sapiens, UniProt P00797); test: In vitro test with pure human renin; details: human tetradecapeptide renin substrate (hTD), pH 7.4, incubated 3 hours at 37° C. or 4° C., angiotensin I production measured via RIA
quantity name: pIC50
Please report pIC50 as the negative decimal logarithm of the molar concentration, giving only the number.

## Input Consider the molecule "CC(C)[C@H](O)[C@H](O)[C@H](CC1CCCCC1)NC(=O)[C@H](Cc1c[nH]cn1)NC(=O)[C@H](Cc1ccccc1)CS(=O)(=O)C(C)(C)C" and give its measured pIC50.
## Output 8.70

## Input pIC50 lookup needed for "CC(C)(C)S(=O)(=O)C[C@@H](Cc1ccccc1)C(=O)N[C@@H](Cc1c[nH]cn1)C(=O)N[C@@H](CC1CCCCC1)[C@@H](O)[C@H](O)c1ccccc1" , thanks.
## Output 6.77

## Input For "CC(C)[C@H](O)[C@H](O)[C@H](CC1CCCCC1)NC(=O)[C@H](Cc1c[nH]cn1)NC(=O)[C@@H](CC(=O)C(C)(C)C)Cc1ccccc1" , what is its reported pIC50?
## Output 8.52

* * *

Biological target: human renin (Homo sapiens, UniProt P00797)
Sequence (P00797 67-406): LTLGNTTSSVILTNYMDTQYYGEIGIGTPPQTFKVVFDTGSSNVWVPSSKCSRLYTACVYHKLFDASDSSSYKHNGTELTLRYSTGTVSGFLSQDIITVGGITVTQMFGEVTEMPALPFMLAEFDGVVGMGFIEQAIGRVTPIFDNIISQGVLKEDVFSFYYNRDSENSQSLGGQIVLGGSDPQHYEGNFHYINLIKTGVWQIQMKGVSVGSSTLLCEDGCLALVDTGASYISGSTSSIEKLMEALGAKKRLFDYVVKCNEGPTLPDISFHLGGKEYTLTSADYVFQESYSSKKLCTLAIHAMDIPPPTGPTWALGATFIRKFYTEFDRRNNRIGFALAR
Assay: In vitro test with pure human renin
Conditions: human tetradecapeptide renin substrate (hTD), pH 7.4, incubated 3 hours at 37° C. or 4° C., angiotensin I production measured via RIA
Method: In vitro test with pure human renin The test is carried out in Eppendorf test tubes. […] The samples are incubated for 3 hours at 37° C. or 4° C. in triplicate. […] The production of angiotensin I is determined by the difference between the experiment at 37° C. and that at 4° C. […] In each sample the base value of the angiotensin I production is subtracted from the angiotensin I production which is determined. […]
quantity name: log10 of IC50 (log10 of the value in nM)
Short version: log10 scale, IC50, nM.

## Input Query for human renin (Homo sapiens, UniProt P00797): what log10 of IC50 does the record show for CCC(CC)C(O)[C@H](O)[C@H](CC1CCCCC1)NC(=O)[C@H](Cc1c[nH]cn1)NC(=O)[C@@H](CC(=O)C(C)(C)C)Cc1ccccc1 (mixture of isomers) [A] ?
## Output 1.38

## Input Notebook: pull reported log10 of IC50 for human renin (Homo sapiens, UniProt P00797), entry CC(C)(C)S(=O)(=O)C[C@@H](Cc1ccccc1)C(=O)N[C@@H](Cc1c[nH]cn1)C(=O)N[C@@H](CC1CCCCC1)[C@@H](O)[C@@H](O)C1CCCCC1 [H]
## Output 0.30

## Input Item CC(C)(C)C(O)[C@H](O)[C@H](CC1CCCCC1)NC(=O)[C@H](Cc1c[nH]cn1)NC(=O)[C@H](Cc1ccccc1)CS(=O)(=O)C(C)(C)C (mixture of isomers) [F] with human renin (Homo sapiens, UniProt P00797) - log10 of IC50?
## Output 1.58

## Input Kindly state the measured log10 of IC50 obtained for CC(C)(C)S(=O)(=O)C[C@@H](Cc1ccccc1)C(=O)N[C@@H](Cc1c[nH]cn1)C(=O)N[C@@H](CC1CCCCC1)[C@@H](O)[C@@H](O)c1ccccc1 [D] with human renin (Homo sapiens, UniProt P00797).
## Output 0.85

## Input Form entry - test system: human renin (Homo sapiens, UniProt P00797); read-out: log10 of IC50; molecule: CC(C)(C)C(=O)C[C@@H](Cc1ccccc1)C(=O)N[C@@H](Cc1c[nH]cn1)C(=O)N[C@@H](CC1CCCCC1)[C@@H](O)[C@@H](O)C1CCCCC1 [B]
## Output 0.00
